Measurement Target: P3-10
Assay Text: BLI
Ends that are not written are not given here.
Property Name: Kd
Units required after the number.

Q. What does the record list as Kd for NPDPNANPNVDPNAN (also: biotinylated, position not given here) [Biotinylated junctional peptide Pep21 (PfCSP peptide 21)] ?
A. 20.4 nM
